Values compiled from PubChem BioAssay.

Readings of composite z-score for the listed compounds
- ASSAY_REMARKS: binders of probe aHhip on microarray, primary screen, stem cell growth factor project, biochemical, small-molecule microarray, fluorescence 635/667 (AID 1087);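 also: score merges spot fluorescence at 667nm with spot signal to noise ratio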
- SETTINGS: higher = more signal
The answer should be written as a number, with no unit following it.

Reported composite z-score of CCCNC(=O)[C@@]1(Sc2ccc(C)cc2)CC(=O)N(Cc2ccccc2Cl)[C@@H]1c1ccc(CO)cc1I : 0.106

Value of measured composite z-score for the entry O=C1O[C@H](c2ccccc2)[C@H](c2ccccc2)N2[C@H]1[C@@H](C(=O)O)[C@]1(C(=O)Nc3ccc(C#CCCO)cc31)[C@H]2c1ccc(OCCO)cc1 : 0.189

Form: compound = CCOC(=O)C1=C[C@@H](C(C)(C)C)N(S(=O)(=O)c2ccc(C)cc2)[C@H]1c1ccc(C#N)cc1 ; composite z-score = 0.144

For this compound ( Cc1ccc(S[C@]2(C(=O)NC3CC3)CC(=O)N(C(C)C)[C@@H]2c2ccc(CO)cc2I)cc1 ), measured composite z-score is -0.318

compound CC1CC/C=C\[C@H]2OC34C=CCN(c5ccc6ccccc6c5)C(=O)[C@H]3N(C(C)CO)C(=O)[C@@H]4C2C(=O)O1 (some centres not stated) , composite z-score observed: -0.0994

Measured composite z-score of C=CCC(OC(C)=O)[C@@H]1[C@@H](N(Cc2cccc3ccccc23)C(=O)Cc2ccc(OC)cc2)c2cc(OCCCO)ccc2N1C(=O)c1ccc2ccccc2c1 (some centres not stated) : -0.337

Recorded result, COC(=O)[C@@]1(Cc2ccc(F)cc2)[C@H]2c3cc(C(=O)N4CCCC4)n(Cc4ccccn4)c3C[C@H]2CN1C(=O)c1ccccc1 , composite z-score: 0.685

----------
- Tested on: XIP peptide (Xip251-270) binding
- ASSAY_REMARKS: XIP fragment 251-270 binding compounds – biochemical, small-molecule microarray, fluorescence 635/667 nm, 0.1 µg/mL protein, primary screen (AID 1182)
- SETTINGS: fluorescent protein binding, 635 nm, higher = more signal, called active from +8 up or from −8 down
// composite z-score lookup, one value per entry
Respond numerically, and do not add a unit to the figure.

Field composite z-score (entry NC(=O)NCC#Cc1ccc2c(c1)[C@]1(C(=O)N2)[C@H](c2ccc(OCCO)cc2)N2[C@H](c3ccccc3)[C@H](c3ccccc3)OC(=O)[C@H]2[C@@H]1C(=O)NC[C@H](O)c1ccccc1 ) reads -0.133

Measured composite z-score, CCCCC(O)C1C=CC2C(=O)N(c3ccccc3)C(=O)C2N1Nc1ccc(C#N)cc1 (centres undefined) : 1

The compound listed as CO[C@H]1O[C@H](CO)[C@@H](OC(=O)Nc2ccccc2)[C@H](OC(=O)Nc2ccccc2)[C@H]1OC(=O)Nc1ccccc1 has a reported composite z-score of 0.142

Entry O=C(NC1CC1)[C@@H]1c2ccccc2C(=O)N(Cc2cc(C(F)(F)F)cc(C(F)(F)F)c2)[C@H]1c1ccc(CO)cc1 — recorded composite z-score = 0.684

----------
- ASSAY_REMARKS: growth modulation of vineyard yeast isolate – strain RM11-1a, OD600, basal, 24 h, primary screen (AID 1177);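 also: cultures grown under basal conditions with no added stressor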
- SETTINGS: S. cerevisiae RM11-1a growth, OD600, 24 h; higher = more signal, called active from +8 up or from −8 down
Hi, to clarify the labels: y covers z-score from 0.4 upward, n covers anything below 0.4.

CCOC(=O)C[C@H]1[C@H](OC(=O)c2ccccc2-c2ccccc2)[C@@H](NC(=O)C2CCCCC2)c2cc(OCCCO)ccc2N1C(=O)c1ccc2ccccc2n1    y
CCOC(=O)C1=CC[C@@H](c2ccc(OC)cc2)N(S(=O)(=O)c2ccc(C)cc2)[C@H]1c1ccc(C)cc1    n
CO[C@H]1O[C@H](CO)[C@@H](OC(=O)Nc2ccccc2)[C@H](OC(=O)Nc2ccccc2)[C@H]1OC(=O)Nc1ccccc1    y

IN: Test whether the compound CCCCC(=C=CC[C@H](O)c1ccc(CO)o1)CCO records z-score of 0.4 or higher.
OUT: y

IN: Would you say CC(=O)OCC1C2CC[C@H]3C(OCc4ccc(F)cc4C(F)(F)F)OC[C@]4(C)[C@H]3C2=C(CN4C(=O)OC(C)(C)C)[C@H](C)C1COC(C)=O (stereo partly drawn) shows z-score at minimum 0.4?
OUT: y

IN: Quick check, z-score >= 0.4? Cc1ccc(S[C@]2(C(=O)NCCCN(C)C)CC(=O)N(C3Cc4ccccc4C3)[C@@H]2c2ccc(CO)cc2I)cc1
OUT: y

IN: Given CCCCCCc1nc(-c2ccc(-c3ccc(Cl)c(Cl)c3)o2)cc2c1[Si](C(C)C)(C(C)C)OC2 , state whether its z-score is at least 0.4.
OUT: n
